tested on: EBC-1; test: relative viability (nuclei count vs DMSO), 5 days (fraction); higher = more cells survive; conditions: first compound 0.5 µM
Exam item: assign yes (1) to entries whose relative viability is below 0.2 and no (0) to entries at or above 0.2. Note that a value of exactly 0.2 receives no (0).

As a guide, the following entries are already answered.
molecule	measurement target	label value
COc1cc2nccc(Oc3ccc(NC(=O)Nc4cc(C)on4)c(Cl)c3)c2cc1OC [Tivozanib] + CC(C)C[C@H](NC(=O)[C@H](Cc1ccccc1)NC(=O)c1cnccn1)B(O)O [Bortezomib] (partner 0.002 µM)	EBC-1	no (0)
Nc1ccn([C@@H]2O[C@H](CO)[C@@H](O)[C@@H]2O)c(=O)n1 [Cytarabine] + C[C@]1(O)C[C@@H](c2nc(-c3ccc4ccc(-c5ccccc5)nc4c3)c3c(N)nccn32)C1 [Linsitinib] (partner 1 µM)	EBC-1	no (0)
COc1cc2nccc(Oc3ccc(NC(=O)Nc4cc(C)on4)c(Cl)c3)c2cc1OC [Tivozanib] + C[C@@H](Oc1cc(-c2cnn(C3CCNCC3)c2)cnc1N)c1c(Cl)ccc(F)c1Cl [Crizotinib] (partner 1 µM)	EBC-1	yes (1)
Nc1ccn([C@@H]2O[C@H](CO)[C@@H](O)[C@@H]2O)c(=O)n1 [Cytarabine] + CS(=O)(=O)CCNCc1ccc(-c2ccc3ncnc(Nc4ccc(OCc5cccc(F)c5)c(Cl)c4)c3c2)o1 [Lapatinib] (partner 2 µM)	EBC-1	no (0)
COc1cc2nccc(Oc3ccc(NC(=O)Nc4cc(C)on4)c(Cl)c3)c2cc1OC [Tivozanib] + O=C(c1cc(Cc2n[nH]c(=O)c3ccccc23)ccc1F)N1CCN(C(=O)C2CC2)CC1 [Olaparib] (partner 8 µM)	EBC-1	no (0)

As a next step, examine the molecule that follows.
Regarding COc1cc2nccc(Oc3ccc(NC(=O)Nc4cc(C)on4)c(Cl)c3)c2cc1OC [Tivozanib] + CC1(C)CCC(c2ccc(Cl)cc2)=C(CN2CCN(c3ccc(C(=O)NS(=O)(=O)c4ccc(N[C@H](CCN5CCOCC5)CSc5ccccc5)c(S(=O)(=O)C(F)(F)F)c4)cc3)CC2)C1 [Navitoclax] (partner 0.5 µM) , kindly confirm whether its relative viability is beneath 0.2. no (0)

====

test system: NCI-H1666; assay: relative viability (nuclei count vs DMSO), 5 days (fraction); higher = more cells survive; details: first compound 0.8 µM
Recorded relative viability by entry
Lab note: write the figure by itself, no unit.

Study these solved cases before continuing.
compound	measured number
Cc1cnc(-c2cnc(NCCNc3ccc(C#N)cn3)nc2-c2ccc(Cl)cc2Cl)[nH]1 + Nc1nc2[nH]cc(CCc3ccc(C(=O)N[C@@H](CCC(=O)O)C(=O)O)cc3)c2c(=O)[nH]1 [Pemetrexed] (partner 0.2 µM)	0.843
O=c1[nH]c2ccccc2n1C1CCN(CCCC(c2ccc(F)cc2)c2ccc(F)cc2)CC1 [Pimozide] + C[C@@H](Oc1cc(-c2cnn(C3CCNCC3)c2)cnc1N)c1c(Cl)ccc(F)c1Cl [Crizotinib] (partner 1 µM)	1.02

Note to self: relative viability recorded for O=c1[nH]c2ccccc2n1C1CCN(CCCC(c2ccc(F)cc2)c2ccc(F)cc2)CC1 [Pimozide] + NC(=O)Nc1cc(-c2cccc(F)c2)sc1C(=O)N[C@H]1CCCNC1 [AZD7762] (partner 0.2 µM) was 0.76
